Value source: ChEMBL document CHEMBL3988442

Catalogue of compounds with associated Percent Effect
# assayed system: Tyrosyl-tRNA synthetase, putative (Trypanosoma cruzi (strain CL Brener))
# protocol description: Trypanosoma cruzi tyrosyl tRNA synthetase (TcYRS) _High Tyrosine SOP; note: in the data most compounds retested in dose-response had high values
# Type: functional
# Design: scale not given: direction of the effect not stated beside the values
# recorded conditions: 30 µM
Report the figure in % without appending any unit label.

CCOCC(=O)N1CCC(Oc2ccc(C(F)(F)F)cn2)CC1	0
CCN1CCN(C(=O)c2nc(C)n(-c3ccccc3Cl)n2)CC1	4.43
CCCc1nnsc1C(=O)NCC1CCN(c2ccccn2)CC1	5.38

// field: Percent Effect; key: CC(=O)NCC1CCN(C(=O)c2csc(-c3ccc(C)cc3C)n2)CC1 ; value = 7.92

Recorded result, Cc1ccc(C(=O)N2CCN(CCCSCC#N)CC2)o1 , Percent Effect: 4.17

Quick note, Percent Effect for COc1c(C)cnc(CN2CCCCC2Cn2nc(C)nc2C)c1C (stereo not drawn) landed at 14.3

The reported value for O=C(CCCOc1ccc(F)cc1)N1CCCC(n2cccn2)C1 (stereo not drawn) in terms of Percent Effect is 2.86

Just so you know, measured Percent Effect for O=C(Nc1cnn(CCN2CCOCC2)c1)c1ccccn1 came out at 5.39

###

Percent Effect overview
# assayed system: Tyrosyl-tRNA synthetase, putative (Trypanosoma cruzi (strain CL Brener)) (UniProt Q4DSP6)
# Sequence (Q4DSP6 as listed by the source): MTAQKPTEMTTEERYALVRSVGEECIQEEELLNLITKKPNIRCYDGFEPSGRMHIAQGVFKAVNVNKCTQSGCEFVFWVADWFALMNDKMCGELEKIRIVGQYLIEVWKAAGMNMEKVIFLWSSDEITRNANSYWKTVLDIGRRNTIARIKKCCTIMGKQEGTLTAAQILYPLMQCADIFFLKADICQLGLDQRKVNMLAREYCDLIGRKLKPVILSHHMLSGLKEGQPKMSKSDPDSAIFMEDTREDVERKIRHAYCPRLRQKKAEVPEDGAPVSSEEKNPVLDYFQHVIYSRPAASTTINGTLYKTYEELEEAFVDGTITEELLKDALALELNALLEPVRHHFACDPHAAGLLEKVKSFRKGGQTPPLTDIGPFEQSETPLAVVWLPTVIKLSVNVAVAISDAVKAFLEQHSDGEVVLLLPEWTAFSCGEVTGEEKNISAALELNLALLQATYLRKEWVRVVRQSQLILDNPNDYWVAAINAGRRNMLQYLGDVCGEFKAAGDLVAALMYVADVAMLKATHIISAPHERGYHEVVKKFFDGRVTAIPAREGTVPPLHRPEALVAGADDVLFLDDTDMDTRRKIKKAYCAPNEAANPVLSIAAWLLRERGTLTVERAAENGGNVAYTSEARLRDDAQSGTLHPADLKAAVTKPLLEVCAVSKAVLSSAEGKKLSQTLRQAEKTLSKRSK
# protocol description: Trypanosoma cruzi tyrosyl tRNA synthetase (TcYRS) SOP
# Format: functional
# Design: scale not given: direction of the effect not stated beside the values
# recorded conditions: 30 µM
# value in %; strip the unit string

// below: answered compounds
CC(C)C(Sc1nnnn1C1CC1)C(=O)NCc1cccnc1 (centres undefined)	19.5
NC(=O)NCC1CCCCN1C(=O)c1cccc(C(F)(F)F)c1 (centres undefined)	16.1
Cc1cc(C)n(CC2CCCCN2CC(=O)Nc2cccnc2)n1 (centres undefined)	16.1
Cn1cc(CCNC(=O)NCc2nnc3n2CCC3)cn1	16.5
Cc1ncsc1CN1C[C@@H]2COC[C@]2(C(=O)NCC2CC2)C1	1.28

Next:
For this compound ( NS(=O)(=O)CCNC(=O)c1nnn(-c2ccccc2)c1C1CC1 ), measured Percent Effect is 6.1

###

# System: Trypanosoma cruzi
# protocol description: Trypanosoma cruzi phosphomannomutase and mannose-1-phosphate guanylyltransferase assay
# Format: functional
# Set-up: scale not given: direction of the effect not stated beside the values
# recorded conditions: 10 µM
Recorded measurements of Percent Effect, one per entry
Please respond with the number in % and leave the unit unwritten.

The molecule CN(C)CCn1c(=O)oc2ccc(NC(=O)c3cc(Cl)c[nH]3)cc21 , when measured on Trypanosoma cruzi, yielded Percent Effect of -3.41

The reported Percent Effect value, Trypanosoma cruzi, for O=C(CN1CCOC(Cn2cccn2)C1)Nc1nccs1 (stereo unspecified) reads 6.22

Record CC(C)CCc1noc(CN2CCCN(C(=O)c3ccco3)CC2)n1 ; system Trypanosoma cruzi; Percent Effect = 2.38

Trypanosoma cruzi assay, molecule CCN1CC(C(=O)NCc2ccccc2-n2cccn2)CC1=O (stereo unspecified) , recorded Percent Effect = 2.45

Entry CNS(=O)(=O)c1ccc(CNC(=O)NCC2CCOC2)cc1 (stereo unspecified) under Trypanosoma cruzi had Percent Effect of 1.86

Result for Cn1cc(CN2CC[C@@H]3[C@@H](CCC(=O)N3CCc3c[nH]cn3)C2)cn1 , tested on Trypanosoma cruzi, Percent Effect: 7.14

###

# assayed system: AMP-activated protein kinase, AMPK (Homo sapiens) (UniProt P54646+O43741+P54619+Q9UGJ0+Q9Y478+Q13131+Q9UGI9)
# protocol description: AMP-dependent Kinase enzyme assay. An in vitro enzyme assay that detects ADP turnover that is directly proportional to AMPK activity. This uses naive AMPK that is activated during the assay with MK-8722
# Assay type: functional
# Parameters: scale not given: direction of the effect not stated beside the values
# recorded conditions: 30 µM
readout: Percent Effect (%)
Give your result in % as a bare value.

O=C(CN1CCC(c2ccnn2CCO)CC1)NCc1cccs1	-3.55
CN(Cc1ccncc1)CC(c1cccs1)N1CCOCC1 (centres undefined)	-4.64

Entry O=C(Nc1cccc(CN2CCOC2=O)c1)N1CCSCC1 ; Percent Effect = -15.6

Entry Cn1nc(COc2cccnc2)c2c1CCN(c1cnccn1)C2 ; Percent Effect = -0.741

Measured Percent Effect of COCC1Cn2nnc(-c3cnn(C)c3)c2CN1Cc1ccc(C)s1 (centres undefined) : 12

Notebook: COCCCNC(=O)CN1CCCC1c1c(C)nn(C)c1Cl (centres undefined) , Percent Effect read as -7.07

Per the record, CCc1nc(CN2CCCC(NCc3cnn(C(C)(C)C)c3)C2)no1 (centres undefined) has Percent Effect of -0.494

For record CCN(Cc1cccc(Cl)c1)Cc1nc2c(cnn2C)c(=O)[nH]1 the listed Percent Effect is 3.13

Summary for this compound, CCn1c(C)nnc1CN(C)C1CCN(CCn2cccn2)C1 (centres undefined) : Percent Effect is 0.0585

response.value for CCc1cc(NC2CCN(S(C)(=O)=O)CC2)n2nc(C)c(C)c2n1 (field: Percent Effect) = 4.89

Measured Percent Effect, CCOC(=O)c1sc(NC(=O)CN(C)S(C)(=O)=O)c(C#N)c1C : 11.5

Please fill in: Percent Effect reported for O=C(c1cnccn1)N1CCN2C[C@H](OCc3ccccn3)C[C@H]2C1 = 2.67

Lab note: O=C(c1ccc[nH]1)N1C[C@H]2CC[C@@H]1CN(C1Cc3ccccc3C1)C2 gave Percent Effect of -3.81

Value of measured Percent Effect for the entry Brc1cc2c(cc1CN1CCC(N3CCCCC3)CC1)OCCO2 : -9.98

Reported Percent Effect of CC1CN(Cc2noc(C3CC3)n2)CCN1Cc1nccn1C (centres undefined) : -12.8

Per the records, this compound ( COC1CCN(C(=O)Cc2csc(-c3ncccn3)n2)CC1 ) has Percent Effect equal to 1.3

Value of measured Percent Effect for the entry CCc1nnc(CNCC2CCCN2c2cccnn2)o1 (centres undefined) : 0.161

Noted for Cn1cccc1CNC(=O)N(CCO)C1CCCc2ccccc21 (centres undefined) : its Percent Effect reads -1.52

According to the records, this compound NC(=O)c1ccc(CN2CCCC(O)C2)cc1 (centres undefined) displays Percent Effect of -3.22

Measured Percent Effect of Cc1cc(C(=O)N2CCCCC2C)ccc1NCC(=O)N1CCOCC1 (centres undefined) : 9.95

###

# assayed system: Proteasome subunit beta (Trypanosoma cruzi) (UniProt O96673)
# Sequence (O96673 as listed by the source): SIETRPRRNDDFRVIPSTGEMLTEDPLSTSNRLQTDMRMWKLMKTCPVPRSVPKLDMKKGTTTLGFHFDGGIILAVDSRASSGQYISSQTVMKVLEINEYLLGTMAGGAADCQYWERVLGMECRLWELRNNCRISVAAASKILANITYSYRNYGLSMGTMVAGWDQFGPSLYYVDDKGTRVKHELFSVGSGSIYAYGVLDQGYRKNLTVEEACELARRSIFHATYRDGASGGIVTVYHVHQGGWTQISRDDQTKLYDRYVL
# protocol description: Trypanosoma cruzi proteasome chymotrypsin-like activity (TcProtChymo) assay. Note: in the data most compounds retested in dose-response had high values.
# Type: functional
# Parameters: scale not given: direction of the effect not stated beside the values
# recorded conditions: 9.37 µM
Binary call on Percent Effect with cut-off 10%: strictly below means class 1, and equality or higher means class 0.

Consider the following illustrative entries.
CC(C)c1nc(CC(=O)Nc2nc(CN3CCCCCC3)cs2)cs1	class 1
CC1(C(=O)N2CCOCC2)CN(Cc2ccccc2F)CCO1 (stereo not drawn)	class 1
Nc1nc(CN2CCCC(Cn3cncn3)C2)nc2ccccc12 (stereo not drawn)	class 1
CS(=O)(=O)Cc1ccc(CNC(=O)c2cccnc2O)cc1	class 0
O=C(c1cccnc1)N1CCc2ncnc(C3CCOC3)c2CC1 (stereo not drawn)	class 0
O=C(NCc1ccccn1)[C@H]1COC[C@H]2CN(Cc3ccoc3)C[C@H]21	class 0
Cc1ccc(N2CCCC(NCc3nc(C)c(C)o3)C2)nn1 (stereo not drawn)	class 1
Cc1nc(C)n(C2CCCN(C(=O)c3cc(C(N)=O)cs3)C2)n1 (stereo not drawn)	class 1

Q: In plain terms, does COc1ccc(C)cc1S(=O)(=O)NCC(c1cccn1C)N(C)C (stereo not drawn) come in under 10% for Percent Effect?
A: class 0

Q: Please check: Percent Effect for CC(=O)N(Cc1noc(C)n1)C1CCN(Cc2ccon2)C1 (stereo not drawn) , strictly under 10% or not?
A: class 0

Q: Is the reported Percent Effect for CNc1nc2c(s1)C(c1c(Cl)cccc1Cl)CC(=O)N2 (stereo not drawn) strictly below 10%?
A: class 0

Q: Given the entry CCn1c(Cn2cncn2)nnc1C1CCN(C(=O)CCSC)CC1 , would its reported Percent Effect be below 10%?
A: class 1

Q: Please let me know if CO[C@@H]1CCN(Cc2cnn(C)c2)[C@@H]2CN(Cc3ccco3)C[C@@H]21 shows Percent Effect below 10%.
A: class 0

###

# assayed system: Tyrosyl-tRNA synthetase, putative (Trypanosoma cruzi (strain CL Brener)) (UniProt Q4DSP6)
# protocol description: Trypanosoma cruzi tyrosyl tRNA synthetase (TcYRS) SOP
# Format: functional
# Parameters: scale not given: direction of the effect not stated beside the values
# recorded conditions: 30 µM
Below, each entry is listed alongside its reported Percent Effect.
# value in %; strip the unit string

c1cncc(COCc2nnc3n2CCN(Cc2ccoc2)C3)c1	16.1
CN(C)CC(=O)N1CCC2(CC1)CN(c1ccsc1)C(=O)CO2	-3.85
CCc1csc(CCNC(=O)C2CC(=O)N(C(C)C)C2)n1 (stereo unspecified)	13.6

Given item CCc1n[nH]c(C2CN(C(=O)c3cc4c(s3)CCCC4)CCO2)n1 (stereo unspecified) , the value recorded as its Percent Effect is 8.86

get_value(item= O=C(CN1CCCCC1Cn1cncn1)NC1CCN(C2CC2)CC1 (stereo unspecified) , readout=Percent Effect) returns 7.32

Sure, the documented Percent Effect for O=C(NCC1CC1)c1nc(COc2ccc3c(c2)OCO3)no1 is 2.56

// CCO[C@@H]1CO[C@@]2(CCCN(C(=O)c3ccc(OC)c(F)c3)C2)C1 : Percent Effect value = 8.97

Noted for COc1ccc(CN2CCOC3(CCCN(c4nnc(C)o4)C3)C2)cc1 (stereo unspecified) : its Percent Effect reads -1.24

Item: Cc1ccc(-c2ncc(C(=O)NCCS(N)(=O)=O)s2)c(C)c1 | Percent Effect: -1.24

Measured Percent Effect of O=S(=O)(NCC1(O)CCOc2ccccc21)c1cccs1 (stereo unspecified) : 5

Percent Effect for CO[C@@H]1CC[C@H]2[C@H]1OCCN2C(=O)c1ccc(C)o1 is -1.28
